system: foxtail, giant (giant foxtail, Setaria faberii); assay: Test A pre-/postemergence greenhouse herbicide test; type: in vivo; conditions: Setaria faberi, pre-emergence, 240 h; Preemergence, 125 g ai/ha; 0 to 100 scale (0 no effect, 100 complete control), approx. 10 d; read-out: Plant response rating, Foxtail, Giant
I'd appreciate it if you could supply pest or weed control at 125 g/ha values for the items below.
Answers are plain numbers, in %.

Please review the entries below; each comes with its answer.
[[record]]
compound = "Cc1cc(Oc2ccnc(C(F)(F)F)c2)nn(-c2ccc(C(F)(F)F)cc2)c1=O [Compound 6]"
tested_system = "foxtail, giant (giant foxtail, Setaria faberii)"
assay_result = 100

[[record]]
compound = "Cc1cc(=O)n(-c2ccc(F)cc2)nc1Cc1ccnc(C(F)(F)F)c1 [Compound 1]"
tested_system = "foxtail, giant (giant foxtail, Setaria faberii)"
assay_result = 100

[[record]]
compound = "COc1cc(=O)n(-c2ccc(C(F)(F)F)cc2)nc1Cc1ccnc(C(F)(F)F)c1 [Compound 16]"
tested_system = "foxtail, giant (giant foxtail, Setaria faberii)"
assay_result = 100


Dear colleague, could you send me pest or weed control at 125 g/ha for each of the items below? Thanks.
1. CCOc1cc(=O)n(-c2ccc(F)cc2)nc1C(=O)c1ccnc(C(F)(F)F)c1 [Compound 22]
2. CCOc1cc(=O)n(-c2ccc(F)cc2)nc1C(O)c1ccnc(C(F)(F)F)c1 (centres unmarked) [Compound 23]
3. Cc1cc(=O)n(-c2ccc(C(F)(F)F)cc2)nc1Oc1ccnc(C(F)(F)F)c1 [Compound 5]
4. Cc1cc(=O)n(-c2ccc(C(F)(F)F)cc2)nc1Cc1ccnc(C(F)(F)F)c1 [Compound 2]

1. 90
2. 100
3. 90
4. 100

----------
system: speedwell (bird's-eye speedwell, Veronica persica); assay: Test D pre-/postemergence controlled growth environment herbicide test; assay type: in vivo; conditions: Postemergence, 31 g ai/ha, scale 0 to 100
I'd appreciate it if you could supply Plant response rating values for the items below.
One number for each entry.

[[record]]
structure_as_smiles = "Cc1cc(=O)n(-c2ccc(C(F)(F)F)cc2)nc1Cc1ccnc(C(F)(F)F)c1"
assay_result = 100

[[record]]
structure_as_smiles = "COc1cc(=O)n(-c2ccc(F)cc2)nc1Cc1ccnc(C(F)(F)F)c1"
assay_result = 10

[[record]]
structure_as_smiles = "Cc1cc(=O)n(-c2ccc(F)cc2)nc1Cc1ccnc(C(F)(F)F)c1"
assay_result = 30


--- query ---
Suppose we examine the compound Cc1cc(=O)n(-c2ccc(F)cc2)nc1Oc1ccnc(C(F)(F)F)c1 ; what Plant response rating value has been reported? 100

----------
I'd appreciate it if you could supply Plant response rating values for the items below.
test system: downy bromegrass (Bromus tectorum); test: Test D pre-/postemergence controlled growth environment herbicide test; assay type: in vivo; conditions: Postemergence, 125 g ai/ha, scale 0 to 100
One number for each entry.

[[record]]
compound = "Cc1cc(=O)n(-c2ccc(C(F)(F)F)cc2)nc1Cc1ccnc(C(F)(F)F)c1 [Compound 2]"
assay_result = 30

[[record]]
compound = "COc1cc(=O)n(-c2ccc(F)cc2)nc1Cc1ccnc(C(F)(F)F)c1 [Compound 17]"
assay_result = 15

[[record]]
compound = "Cc1cc(=O)n(-c2ccc(F)cc2)nc1Cc1ccnc(C(F)(F)F)c1 [Compound 1]"
assay_result = 10


--- query ---
Suppose we examine the compound Cc1cc(=O)n(-c2ccc(F)cc2)nc1Oc1ccnc(C(F)(F)F)c1 [Compound 14] ; what Plant response rating value has been reported? 20
